B1: VH:VL chains; a variant is named by its letters at X, in order (parent)
chain 1: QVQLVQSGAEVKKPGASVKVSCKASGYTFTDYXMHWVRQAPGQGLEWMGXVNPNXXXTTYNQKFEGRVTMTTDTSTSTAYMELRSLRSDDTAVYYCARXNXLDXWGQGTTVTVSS
chain 2: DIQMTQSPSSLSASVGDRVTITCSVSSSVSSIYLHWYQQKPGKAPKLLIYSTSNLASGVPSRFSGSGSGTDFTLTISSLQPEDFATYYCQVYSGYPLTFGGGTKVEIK

Variants of: B1
ASSAY_PROTOCOL: yeast display scFab, FACS + sequencing
EXPERIMENTAL_SETUP: with MET
Some of the results follow. The true hit rate is not given.
QUANTITY_KIND: antigen binding call

| VARIANT_NAME | QUANTITY_KIND | RESULT |
| --- | --- | --- |
| YKRGDAVF | antigen binding call | binds |
| VKGRGSAY | antigen binding call | binds |
| FRAGGAWS | antigen binding call | binds |
| VEEEGSGA | antigen binding call | no binding |
| VAGTGSAD | antigen binding call | no binding |

Prompt: GET /values?readout=antigen binding call&item= VRGGGFGV
Response: no binding

Prompt: Which antigen binding call is reported for this variant? YKRGSSGF
Response: binds

Prompt: Given the variant VETEGDWD , what is its reported antigen binding call?
Response: no binding

Prompt: So what's the measured antigen binding call for this one? YRRRGSGV
Response: binds

Prompt: # get_value(readout='antigen binding call', item= YKKGAAGF )
Response: binds
